Molecular target: T1, Axl (Homo sapiens, UniProt P30530)
T1 sequence (P30530 26-451 limits assumed): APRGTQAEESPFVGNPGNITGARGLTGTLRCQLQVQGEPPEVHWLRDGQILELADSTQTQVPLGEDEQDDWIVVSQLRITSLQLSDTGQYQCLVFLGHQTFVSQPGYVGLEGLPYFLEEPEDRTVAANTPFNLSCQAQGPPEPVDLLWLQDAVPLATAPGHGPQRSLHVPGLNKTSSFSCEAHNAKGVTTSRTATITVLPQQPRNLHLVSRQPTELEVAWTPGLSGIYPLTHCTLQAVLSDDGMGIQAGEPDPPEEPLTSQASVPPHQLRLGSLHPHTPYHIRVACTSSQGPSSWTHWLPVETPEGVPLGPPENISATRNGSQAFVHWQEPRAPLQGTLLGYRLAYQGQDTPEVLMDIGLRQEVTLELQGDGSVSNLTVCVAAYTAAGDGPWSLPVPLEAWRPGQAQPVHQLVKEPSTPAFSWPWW
Test: Affinity ELISA of CPE mutant antibodies for binding to Axl at pH 6.0 over pH 7.4
Settings: heavy chain variable region mutants; 1:3 dilution
What Affinity ELISA CPE mutant ratio (1:3, pH 6.0/7.4) was measured for each of the following?
Write the number on its own, no unit after it.

Fill blank: measured Affinity ELISA CPE mutant ratio (1:3, pH 6.0/7.4) of the molecule HC-S059I (antibody, V domains shown) VH: EVQLVQSGAEVKKPGATVKISCKVSGYSFTGHTMNWIRQPPGKGLEWIGLIKPSNGGTIYNQKFKGRVTISADKSISTAYLQWSSLKASDTAMYYCAHGHYESYFAMDYWGQGTLVTVSS VL: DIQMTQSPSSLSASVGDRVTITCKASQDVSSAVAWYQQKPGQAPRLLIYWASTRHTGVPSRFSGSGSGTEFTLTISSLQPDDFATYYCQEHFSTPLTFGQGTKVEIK is ____.
30.492

Try this molecule next: HC-E102H (antibody, V domains shown) VH: EVQLVQSGAEVKKPGATVKISCKVSGYSFTGHTMNWIRQPPGKGLEWIGLIKPSNGGTSYNQKFKGRVTISADKSISTAYLQWSSLKASDTAMYYCAHGHYHSYFAMDYWGQGTLVTVSS VL: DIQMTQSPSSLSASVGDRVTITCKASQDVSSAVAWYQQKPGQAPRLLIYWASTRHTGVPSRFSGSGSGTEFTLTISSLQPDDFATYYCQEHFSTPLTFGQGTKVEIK
2.076

Try this molecule next: HC-H100W (antibody, V domains shown) VH: EVQLVQSGAEVKKPGATVKISCKVSGYSFTGHTMNWIRQPPGKGLEWIGLIKPSNGGTSYNQKFKGRVTISADKSISTAYLQWSSLKASDTAMYYCAHGWYESYFAMDYWGQGTLVTVSS VL: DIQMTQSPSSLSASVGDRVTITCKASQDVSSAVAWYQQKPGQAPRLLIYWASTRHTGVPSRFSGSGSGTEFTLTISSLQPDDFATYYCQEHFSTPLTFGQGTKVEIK
4.937

Try this molecule next: HC-W110L (antibody, V domains shown) VH: EVQLVQSGAEVKKPGATVKISCKVSGYSFTGHTMNWIRQPPGKGLEWIGLIKPSNGGTSYNQKFKGRVTISADKSISTAYLQWSSLKASDTAMYYCAHGHYESYFAMDYLGQGTLVTVSS VL: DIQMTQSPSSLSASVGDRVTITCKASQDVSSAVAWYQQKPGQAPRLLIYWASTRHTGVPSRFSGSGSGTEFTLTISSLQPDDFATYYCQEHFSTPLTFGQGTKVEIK
8.220
